Values were extracted from patent US10407430B2.

- ASSAY SYSTEM: Human JAK3 (Homo sapiens, UniProt P52333)
- Construct: purchased Millipore, Germany
- Sequence (P52333 1-1124): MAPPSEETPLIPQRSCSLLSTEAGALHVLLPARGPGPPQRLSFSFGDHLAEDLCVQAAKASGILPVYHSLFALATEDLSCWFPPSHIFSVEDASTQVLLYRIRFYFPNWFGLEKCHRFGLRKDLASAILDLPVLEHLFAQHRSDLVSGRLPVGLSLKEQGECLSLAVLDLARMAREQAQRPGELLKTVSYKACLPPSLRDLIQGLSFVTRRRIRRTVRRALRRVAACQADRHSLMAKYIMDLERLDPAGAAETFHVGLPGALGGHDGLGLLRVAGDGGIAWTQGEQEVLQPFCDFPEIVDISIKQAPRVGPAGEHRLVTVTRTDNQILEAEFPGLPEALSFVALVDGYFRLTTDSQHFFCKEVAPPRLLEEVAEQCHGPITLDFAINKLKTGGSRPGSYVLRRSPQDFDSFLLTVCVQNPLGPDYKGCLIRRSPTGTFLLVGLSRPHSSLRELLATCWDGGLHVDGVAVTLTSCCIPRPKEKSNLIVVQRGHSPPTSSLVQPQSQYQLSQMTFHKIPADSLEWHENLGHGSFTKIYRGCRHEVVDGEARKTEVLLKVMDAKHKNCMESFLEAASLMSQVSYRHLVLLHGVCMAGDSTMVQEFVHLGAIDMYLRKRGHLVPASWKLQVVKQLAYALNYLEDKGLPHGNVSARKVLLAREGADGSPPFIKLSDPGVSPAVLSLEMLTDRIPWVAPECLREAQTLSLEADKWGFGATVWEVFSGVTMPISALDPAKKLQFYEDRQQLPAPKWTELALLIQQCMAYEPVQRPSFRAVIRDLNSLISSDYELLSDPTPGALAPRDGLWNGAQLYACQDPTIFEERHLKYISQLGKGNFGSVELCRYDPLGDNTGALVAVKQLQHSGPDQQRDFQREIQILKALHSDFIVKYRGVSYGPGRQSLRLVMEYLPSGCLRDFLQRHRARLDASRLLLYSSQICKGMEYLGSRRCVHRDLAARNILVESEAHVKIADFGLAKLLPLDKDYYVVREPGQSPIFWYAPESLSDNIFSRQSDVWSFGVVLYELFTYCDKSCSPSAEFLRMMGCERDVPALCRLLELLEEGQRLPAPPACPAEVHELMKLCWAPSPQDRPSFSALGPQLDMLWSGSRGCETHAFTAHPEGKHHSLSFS
- PROCEDURE SUMMARY: In-vitro kinase inhibition test, JAK3
- Assay type: biochemical
- TEST CONTEXT: compound at 1 uM; read-out: JAK3 kinase-phosphorylation inhibitory level (% inhibition)
inhibition at 1 µM by entry:
VALUE TYPE: inhibition at 1 µM (%)

# COMPOUND, VALUE
data = [
    ("CC(C)S(=O)(=O)N1CC[C@@H](N(C)c2ncnc3[nH]ccc23)C1 [Example 12]", 13),
    ("C[C@@H]1CCN(S(=O)(=O)c2cccc(C#N)c2)C[C@@H]1N(C)c1ncnc2[nH]ccc12 [Example 42]", 89),
    ("N#Cc1cccc(S(=O)(=O)N2CC[C@@H](N(CC3CC3)c3ncnc4[nH]ccc34)C2)c1 [Example 36]", 10),
    ("N#CCC(=O)N1C[C@H]2CCCN(c3ncnc4[nH]ccc34)[C@H]2C1 [Example 49]", 1),
    ("CN(c1ncnc2[nH]ccc12)[C@@H]1CCN(S(=O)(=O)c2ccccc2C#N)C1 [Example 18]", 22),
    ("CN(c1ncnc2[nH]ccc12)[C@@H]1CCN(S(=O)(=O)c2ccccc2)C1 [Example 14]", 17),
    ("CN(c1ncnc2[nH]ccc12)[C@@H]1CCCN(S(=O)(=O)c2cccc(C#N)c2)C1 [Example 41]", 39),
    ("CN(c1ncnc2[nH]ccc12)[C@@H]1CCN(S(=O)(=O)c2ccccc2F)C1 [Example 15]", 25),
]
